# ASSAYED_SYSTEM: OCT2 (Homo sapiens, UniProt O15244)
# Sequence (O15244 whole entry): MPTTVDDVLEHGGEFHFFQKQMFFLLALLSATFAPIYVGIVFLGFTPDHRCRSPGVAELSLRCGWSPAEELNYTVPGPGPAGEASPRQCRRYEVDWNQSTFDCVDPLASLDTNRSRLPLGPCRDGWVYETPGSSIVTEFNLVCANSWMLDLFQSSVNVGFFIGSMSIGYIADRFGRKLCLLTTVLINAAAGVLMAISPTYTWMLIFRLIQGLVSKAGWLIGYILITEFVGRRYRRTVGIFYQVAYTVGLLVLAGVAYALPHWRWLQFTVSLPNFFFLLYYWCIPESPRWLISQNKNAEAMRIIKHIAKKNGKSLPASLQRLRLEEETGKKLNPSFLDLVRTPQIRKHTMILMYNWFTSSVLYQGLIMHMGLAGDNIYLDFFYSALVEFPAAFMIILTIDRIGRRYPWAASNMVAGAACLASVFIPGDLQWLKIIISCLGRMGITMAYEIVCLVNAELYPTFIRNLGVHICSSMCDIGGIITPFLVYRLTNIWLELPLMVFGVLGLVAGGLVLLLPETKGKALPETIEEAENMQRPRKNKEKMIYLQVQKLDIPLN
# TEST_SUMMARY: Uptake inhibition assay, [3H]MPP+ uptake in HEK293 cells
QUANTITY_NAME: IC50 (µM)
One number for each entry, in µM.

Here are 3 compounds together with their reported answers.
CNC(C)Cc1ccc2c(c1)OCO2 (stereo not shown) [MDMA, 3,4-Methylenedioxymethamphetamine, reference compound]	5.3
CC(N)Cc1ccc2c(c1)SCO2 (stereo not shown) [SDA, 1-(1,3-benzoxathiol-5-yl)propan-2-amine]	5.7
CNC(C)Cc1ccc2c(c1)SCO2 (stereo not shown) [SDMA]	4.13

Ask | Recorded IC50 of CC(N)Cc1ccc2c(c1)OCO2 (stereo not shown) [MDA, 3,4-Methylenedioxyamphetamine, reference compound] , please.
Reply | 5.13
